# credit: ChEMBL document CHEMBL6092221

// values below are reported Cmax
Test: Cmax in dog at 2 mg/kg, po
Type: ADME, organism-based, Canis lupus familiaris
Conditions: in vivo
Write down the numeric answer in ng/mL and omit the unit.

GET /value?item= CC1(C)CC[C@H](Nc2ncc(C(F)(F)F)c(-c3c[nH]c4c(P(C)(C)=O)c(C#N)ccc34)n2)CN1 [SY-5609] &field=Cmax returns 123

# Cmax (compound: CN1CC(F)(F)CCN(C)[C@H]2CC[C@@H](C2)Nc2ncc(C(F)(F)F)c(n2)-c2c[nH]c3c(P(C)(C)=O)c(ccc23)C1=O ) is 6620

---

Assay: Clearance in rat at 1 mg/kg, iv
Format: ADME, organism-based
Conditions: in vivo
value.type: clearance (mL/min/kg)
Quick note: give the figure in mL/min/kg, leave out the unit.

[[record]]
compound_string = "CN1CC(F)(F)CCN(C)[C@H]2CC[C@@H](C2)Nc2ncc(C(F)(F)F)c(n2)-c2c[nH]c3c(P(C)(C)=O)c(ccc23)C1=O"
assay_value = 39.9


Next, consider the following molecule.
Lab note: measured clearance of CC1(C)CC[C@H](Nc2ncc(C(F)(F)F)c(-c3c[nH]c4c(P(C)(C)=O)c(C#N)ccc34)n2)CN1 was 67.5

---

System: OVCAR-3
Test: cells
Settings: Homo sapiens, OVCAR-3, 72 h
Description: Antiproliferative activity against human OVCAR-3 cells assessed as inhibition of cell proliferation incubated for 72 hrs by celltiter-glo assay
value.type: pIC50
In simple prose, pIC50 is minus the logarithm base ten of a concentration in moles per litre.

Example molecules with recorded pIC50:
[[record]]
compound_string = "CN1CCOCCN(C)[C@H]2CC[C@@H](C2)Nc2ncc(C(F)(F)F)c(n2)-c2c[nH]c3c(P(C)(C)=O)c(ccc23)C1=O"
assay_system = "OVCAR-3"
assay_value = 6.62

[[record]]
compound_string = "CN1CC(F)(F)CCN(C)[C@H]2CC[C@@H](C2)Nc2ncc(C(F)(F)F)c(n2)-c2c[nH]c3c(P(C)(C)=O)c(ccc23)C1=O"
assay_system = "OVCAR-3"
assay_value = 7.24

[[record]]
compound_string = "CN1CCCCO[C@H]2CC[C@@H](C2)Nc2ncc(C(F)(F)F)c(n2)-c2c[nH]c3c(P(C)(C)=O)c(ccc23)C1=O"
assay_system = "OVCAR-3"
assay_value = 6.74

[[record]]
compound_string = "CN1C[C@@H](F)CCN(C)[C@H]2CC[C@@H](C2)Nc2ncc(C(F)(F)F)c(n2)-c2c[nH]c3c(P(C)(C)=O)c(ccc23)C1=O"
assay_system = "OVCAR-3"
assay_value = 7.23

[[record]]
compound_string = "CN1C[C@H](F)CCN(C)[C@H]2CC[C@@H](C2)Nc2ncc(C(F)(F)F)c(n2)-c2c[nH]c3c(P(C)(C)=O)c(ccc23)C1=O"
assay_system = "OVCAR-3"
assay_value = 7.20


Proceeding to the next molecule to report its pIC50.
The measured pIC50 associated with CN1CCCCN(C)[C@H]2CC[C@@H](C2)Nc2ncc(C(F)(F)F)c(n2)-c2c[nH]c3c(P(C)(C)=O)c(ccc23)C1=O reads 6.98

---

Target: CDK7/Cyclin H/MNAT1 (Homo sapiens, UniProt P50613)
Sequence (P51946 whole entry): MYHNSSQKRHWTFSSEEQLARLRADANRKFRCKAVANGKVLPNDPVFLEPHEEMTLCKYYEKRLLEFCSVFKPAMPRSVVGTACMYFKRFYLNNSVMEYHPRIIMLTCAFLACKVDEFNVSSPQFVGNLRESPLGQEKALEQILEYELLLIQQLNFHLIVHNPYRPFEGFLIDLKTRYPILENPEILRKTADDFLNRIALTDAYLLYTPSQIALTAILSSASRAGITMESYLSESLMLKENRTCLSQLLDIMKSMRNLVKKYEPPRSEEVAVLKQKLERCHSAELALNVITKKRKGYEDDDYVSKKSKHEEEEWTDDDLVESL
Sequence (P50613 whole entry): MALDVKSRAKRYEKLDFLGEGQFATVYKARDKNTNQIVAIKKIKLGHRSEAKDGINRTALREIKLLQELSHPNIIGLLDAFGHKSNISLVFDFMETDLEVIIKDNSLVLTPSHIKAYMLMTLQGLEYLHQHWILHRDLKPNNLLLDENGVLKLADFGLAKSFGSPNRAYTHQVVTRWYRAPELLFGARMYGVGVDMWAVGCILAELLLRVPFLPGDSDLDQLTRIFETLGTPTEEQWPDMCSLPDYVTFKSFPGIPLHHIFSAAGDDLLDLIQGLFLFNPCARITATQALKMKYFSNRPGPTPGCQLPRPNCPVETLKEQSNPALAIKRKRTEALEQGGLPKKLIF
Sequence (P51948 whole entry, further chain): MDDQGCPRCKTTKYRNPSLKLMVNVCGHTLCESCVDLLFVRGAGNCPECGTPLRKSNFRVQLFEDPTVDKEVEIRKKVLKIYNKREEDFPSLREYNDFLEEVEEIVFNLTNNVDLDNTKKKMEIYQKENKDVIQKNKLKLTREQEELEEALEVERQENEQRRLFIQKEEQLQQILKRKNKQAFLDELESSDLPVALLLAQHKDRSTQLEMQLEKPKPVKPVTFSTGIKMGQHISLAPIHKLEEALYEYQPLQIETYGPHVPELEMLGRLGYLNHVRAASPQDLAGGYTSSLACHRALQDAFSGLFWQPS
Assay: Inhibition of CDK7/CyclinH/MAT1 (unknown origin) in presence of ATP by kinase activity assay
Type: protein-complex assay
value.type: IC50 (nM)
Numbers only here, please. The scale is nM.

[[record]]
compound_string = "O=C1NCCOCCN2CC[C@@H](C2)Nc2ncc(C(F)(F)F)c(n2)-c2c[nH]c3cc1ccc23"
display_unit = "nM"
assay_value = 11


Proceeding to the next molecule to report its IC50.
Form field IC50, entry O=C1NCCCCN[C@@H]2CC[C@H](C2)Nc2ncc(C(F)(F)F)c(n2)-c2c[nH]c3cc1ccc23 : 4.6

---

Biological target: UniProt:P10635
Sequence (P10635 whole entry): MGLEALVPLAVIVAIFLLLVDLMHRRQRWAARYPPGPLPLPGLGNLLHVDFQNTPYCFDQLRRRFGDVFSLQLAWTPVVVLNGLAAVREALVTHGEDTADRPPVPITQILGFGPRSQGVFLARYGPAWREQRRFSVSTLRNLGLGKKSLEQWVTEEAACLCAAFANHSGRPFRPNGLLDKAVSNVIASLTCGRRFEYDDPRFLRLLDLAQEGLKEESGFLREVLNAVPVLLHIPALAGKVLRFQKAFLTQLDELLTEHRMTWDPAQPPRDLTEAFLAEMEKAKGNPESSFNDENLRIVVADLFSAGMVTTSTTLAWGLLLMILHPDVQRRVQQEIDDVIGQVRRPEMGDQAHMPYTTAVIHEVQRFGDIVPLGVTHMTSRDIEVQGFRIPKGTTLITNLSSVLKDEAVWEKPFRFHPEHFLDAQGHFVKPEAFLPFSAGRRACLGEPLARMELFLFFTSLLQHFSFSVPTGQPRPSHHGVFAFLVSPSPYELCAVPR
Experiment: Inhibition of CYP2D6 (unknown origin)
Assay type: ADME
value.type: pIC50
Lab note: report pIC50 as minus log10 of the concentration in molar units, number only.

Looking up CN1CC(F)(F)CCN(C)[C@H]2CC[C@@H](C2)Nc2ncc(C(F)(F)F)c(n2)-c2c[nH]c3c(P(C)(C)=O)c(ccc23)C1=O , I found its pIC50 recorded as 5.15

---

Item-by-item account of clearance
Test: Clearance in female Balb/c nude mouse at 1 mg/kg, iv
Assay type: ADME, organism-based
Conditions: in vivo
Answer with the number, then the unit.

// solved cases for clearance follow
[[record]]
compound_string = "CN1CCCCO[C@H]2CC[C@@H](C2)Nc2ncc(C(F)(F)F)c(n2)-c2c[nH]c3c(P(C)(C)=O)c(ccc23)C1=O"
value_type = "clearance"
assay_value = "45.8 mL/min/kg"

[[record]]
compound_string = "CN1CC(F)(F)CCN(C)[C@H]2CC[C@@H](C2)Nc2ncc(C(F)(F)F)c(n2)-c2c[nH]c3c(P(C)(C)=O)c(ccc23)C1=O"
value_type = "clearance"
assay_value = "52.6 mL/min/kg"


Documented clearance of CP(C)(=O)c1c2ccc3c(c[nH]c13)-c1nc(ncc1C(F)(F)F)N[C@H]1CC[C@@H](C1)NCCOCCNC2=O : 95.9 mL/min/kg

---

Assay: AUC(0 to t) in human HCC70 cells xenografted in female nu/nu mouse plasma at 10 mg/kg, po administered once daily
Assay type: ADME, organism-based
value.type: AUC(0-t) (ng·h/mL)
Please state the figure in ng·h/mL; there is no need to write the unit.

AUC(0-t) for CN1CC(F)(F)CCN(C)[C@H]2CC[C@@H](C2)Nc2ncc(C(F)(F)F)c(n2)-c2c[nH]c3c(P(C)(C)=O)c(ccc23)C1=O is 812

---

Target: UniProt:Q12809
Sequence (Q12809 whole entry): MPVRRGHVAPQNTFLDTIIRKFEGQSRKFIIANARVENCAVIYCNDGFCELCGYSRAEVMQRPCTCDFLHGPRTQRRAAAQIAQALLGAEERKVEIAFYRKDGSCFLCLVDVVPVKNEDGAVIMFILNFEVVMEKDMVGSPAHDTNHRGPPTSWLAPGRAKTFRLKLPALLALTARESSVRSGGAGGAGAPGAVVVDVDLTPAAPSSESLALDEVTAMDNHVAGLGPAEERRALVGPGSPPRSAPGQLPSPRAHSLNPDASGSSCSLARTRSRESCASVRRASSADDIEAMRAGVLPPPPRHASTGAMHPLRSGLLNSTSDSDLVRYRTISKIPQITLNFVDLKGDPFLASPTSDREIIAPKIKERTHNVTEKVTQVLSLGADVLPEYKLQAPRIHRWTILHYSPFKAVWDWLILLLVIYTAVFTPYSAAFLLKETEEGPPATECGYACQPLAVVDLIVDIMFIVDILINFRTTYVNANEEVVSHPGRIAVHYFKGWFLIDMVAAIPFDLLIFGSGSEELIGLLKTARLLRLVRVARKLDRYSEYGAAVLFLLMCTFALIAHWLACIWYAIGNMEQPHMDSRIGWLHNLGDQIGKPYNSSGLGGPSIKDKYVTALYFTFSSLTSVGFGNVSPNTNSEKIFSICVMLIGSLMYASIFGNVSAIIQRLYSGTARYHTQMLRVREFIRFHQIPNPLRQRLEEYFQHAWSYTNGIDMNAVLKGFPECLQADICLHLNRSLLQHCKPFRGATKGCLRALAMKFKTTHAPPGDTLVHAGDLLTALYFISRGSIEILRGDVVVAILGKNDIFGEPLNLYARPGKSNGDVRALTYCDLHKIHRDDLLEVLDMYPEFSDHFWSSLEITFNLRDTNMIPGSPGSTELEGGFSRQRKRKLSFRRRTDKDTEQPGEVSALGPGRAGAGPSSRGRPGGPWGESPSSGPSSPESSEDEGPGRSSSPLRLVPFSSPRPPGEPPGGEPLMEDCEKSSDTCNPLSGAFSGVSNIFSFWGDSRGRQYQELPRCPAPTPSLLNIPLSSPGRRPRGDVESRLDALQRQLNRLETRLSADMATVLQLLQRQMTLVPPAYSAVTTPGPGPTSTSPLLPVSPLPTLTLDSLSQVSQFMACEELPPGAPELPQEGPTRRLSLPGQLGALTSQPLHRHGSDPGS
value.type: IC50 (µM)
Record the value in µM, omitting the unit from your answer.

Measured IC50 (UniProt:Q12809), entry CN1CC(F)(F)CCN(C)[C@H]2CC[C@@H](C2)Nc2ncc(C(F)(F)F)c(n2)-c2c[nH]c3c(P(C)(C)=O)c(ccc23)C1=O : 9.94

---

Measured concentration at 8 h by item
Assay: Drug concentration in rat plasma at 5 mg/kg, po measured after 8 hrs
Type: ADME, organism-based
Your answer is read as ng/mL, so omit the unit and give the number.

[[record]]
compound_string = "CN1CC(F)(F)CCN(C)[C@H]2CC[C@@H](C2)Nc2ncc(C(F)(F)F)c(n2)-c2c[nH]c3c(P(C)(C)=O)c(ccc23)C1=O"
display_unit = "ng/mL"
assay_value = 3.5


Record CC1(C)CC[C@H](Nc2ncc(C(F)(F)F)c(-c3c[nH]c4c(P(C)(C)=O)c(C#N)ccc34)n2)CN1 , field concentration at 8 h: 43.1

---

Reported values of fraction unbound for individual entries
Assay: Plasma protein binding in human assessed as unbound fraction
Type: ADME, cell-free
Number only, no unit.

[[record]]
molecule = "CC1(C)CC[C@H](Nc2ncc(C(F)(F)F)c(-c3c[nH]c4c(P(C)(C)=O)c(C#N)ccc34)n2)CN1 [SY-5609]"
assay_value = 0.142


Field: next molecule
For CN1CC(F)(F)CCN(C)[C@H]2CC[C@@H](C2)Nc2ncc(C(F)(F)F)c(n2)-c2c[nH]c3c(P(C)(C)=O)c(ccc23)C1=O the molecule record lists fraction unbound as 0.043

---

Biological target: Cyclin-dependent kinase 7/ cyclin H (Homo sapiens, UniProt P50613)
Sequence (P51946 whole entry): as the sequence (P51946 whole entry) above
Sequence (P50613 whole entry): as the sequence (P50613 whole entry) above
Experiment: Binding affinity to CDK7/CyclinH (unknown origin) assessed as dissociation constant by SPR assay
value.type: Kd (pM)
Your answer should be a plain number; it is taken to be in pM.

Reference set, count: 2
[[record]]
compound_string = "O=C1NCCCCN[C@@H]2CC[C@H](C2)Nc2ncc(C(F)(F)F)c(n2)-c2c[nH]c3cc1ccc23"
assay_value = 140

[[record]]
compound_string = "CN1C[C@@H](F)CCN(C)[C@H]2CC[C@@H](C2)Nc2ncc(C(F)(F)F)c(n2)-c2c[nH]c3c(P(C)(C)=O)c(ccc23)C1=O"
assay_value = 120


# Kd of CN1CCCCO[C@H]2CC[C@@H](C2)Nc2ncc(C(F)(F)F)c(n2)-c2c[nH]c3c(P(C)(C)=O)c(ccc23)C1=O = 3500

Looking up CP(C)(=O)c1c2ccc3c(c[nH]c13)-c1nc(ncc1C(F)(F)F)N[C@H]1CC[C@@H](C1)NCCOCCNC2=O , I found its Kd recorded as 60

According to the records, this molecule CP(C)(=O)c1c2ccc3c(c[nH]c13)-c1nc(ncc1C(F)(F)F)N[C@H]1CC[C@@H](C1)NCCCCNC2=O displays Kd of 160

The measured Kd associated with CN1CC(F)(F)CCN(C)[C@H]2CC[C@@H](C2)Nc2ncc(C(F)(F)F)c(n2)-c2c[nH]c3c(P(C)(C)=O)c(ccc23)C1=O reads 180

---

Test: Oral bioavailability in rat at 5 mg/kg
Format: ADME, organism-based
Details: in vivo
Consider the following compounds and their measured bioavailability readings.

[[record]]
compound_string = "CC1(C)CC[C@H](Nc2ncc(C(F)(F)F)c(-c3c[nH]c4c(P(C)(C)=O)c(C#N)ccc34)n2)CN1"
assay_value = "89.7%"


The compound listed as CN1CC(F)(F)CCN(C)[C@H]2CC[C@@H](C2)Nc2ncc(C(F)(F)F)c(n2)-c2c[nH]c3c(P(C)(C)=O)c(ccc23)C1=O has a reported bioavailability of 29%
